# Assay: Viability assay against CHO cells (MTT colorimetric assay)
# Type: cell-based, Chinese hamster
# Test Conditions: Chinese hamster, CHO cells, 3.125e-007 M; 72 h; replicates n = 1, 2, 3; read-out: % viable cells
Starred links: 1 amine or outer side, 2 acyl side, 3 side chain; linkers in the order of their positions; H or OH if unused. Positions of bridges follow the written chain, without caps; N, C: chain ends. Non-standard residues stand in square brackets, D forms with d. Residues, ends and D or L forms follow the SMILES beside them. Trp(2-yl) = O=C([C@H](Cc1c([*:3])[nH]c2ccccc12)N[*:1])[*:2]; Pro(4R-SH) = O=C([C@@H]1C[C@@H](S[*:3])CN1[*:1])[*:2]; X2 = [N-]=[N+]=N[C@@H]1C[C@@H](C(=O)[*:2])N([*:1])C1; Ile(4R-OH,5-OH) = C[C@H]([C@H](N)C(=O)O)[C@@H](O)CO; X1 = N#C[C@@H]1C[C@@H](C(=O)[*:2])N([*:1])C1

# Molecule, Units Text, viability at 72 h, 3.125e-07 M
rows = [
    ("CC[C@H](C)[C@@H]1NC(=O)CNC(=O)[C@@H]2Cc3c([nH]c4ccccc34)SC[C@H](NC(=O)CNC1=O)C(=O)N[C@@H](CC(N)=O)C(=O)N1C[C@H](N=[N+]=[N-])C[C@H]1C(=O)N[C@@H]([C@@H](C)[C@@H](O)CO)C(=O)N2 [Compound 3, N3-Pro-amanitin] (cyclo(CN[X2][Ile(4R-OH,5-OH)][Trp(2-yl)]GIG); thioether 1-5)", "%", 99),
    ("CC[C@H](C)[C@@H]1NC(=O)CNC(=O)[C@@H]2Cc3c([nH]c4ccccc34)SC[C@H](NC(=O)CNC1=O)C(=O)N[C@@H](CC(N)=O)C(=O)N1C[C@H](S)C[C@H]1C(=O)N[C@@H]([C@@H](C)[C@@H](O)CO)C(=O)N2 [Compound 5, SH-Pro-amanitin] (cyclo(CN[Pro(4R-SH)][Ile(4R-OH,5-OH)][Trp(2-yl)]GIG); thioether 1-5)", "%", 94),
    ("CC[C@H](C)[C@@H]1NC(=O)CNC(=O)[C@@H]2Cc3c([nH]c4ccccc34)SC[C@H](NC(=O)CNC1=O)C(=O)N[C@@H](CC(N)=O)C(=O)N1C[C@H](C#N)C[C@H]1C(=O)N[C@@H]([C@@H](C)[C@@H](O)CO)C(=O)N2 [Compound 4, CN-Pro-amanitin] (cyclo(CN[X1][Ile(4R-OH,5-OH)][Trp(2-yl)]GIG); thioether 1-5)", "%", 99),
]
